Data provenance: BigSolDB 2.1

Settings: in toluene, 283.15 K
Assay metric: solubility (mole fraction)
A bare number is all that is needed in reply.

query: Fill in solubility (mole fraction) for record CC1Cc2ccccc2N1NC(=O)c1ccc(Cl)c(S(N)(=O)=O)c1 (stereo unspecified)
result: 6.4e-06

* * *

Conditions: in acetone, 278.15 K
Assay metric: solubility (mole fraction)
Reply: number alone, nothing else.

query: Answer with the recorded solubility (mole fraction) for the compound listed here: CC1Cc2ccccc2N1NC(=O)c1ccc(Cl)c(S(N)(=O)=O)c1 (stereo unspecified)
result: 0.0204

* * *

Conditions: in 2-butanone, 313.15 K
Assay metric: solubility (mole fraction)

query: Identify solubility (mole fraction) associated with the molecule CC1Cc2ccccc2N1NC(=O)c1ccc(Cl)c(S(N)(=O)=O)c1 (stereo unspecified)
result: 0.0371

* * *

Conditions: in methanol, 303.15 K
Assay metric: solubility (mole fraction)
Note: the reply should be a number with no unit written.

query: Answer with reported solubility (mole fraction) of CC1Cc2ccccc2N1NC(=O)c1ccc(Cl)c(S(N)(=O)=O)c1 (stereo unspecified)
result: 0.0187

* * *

Details: in 2-butanone, 288.15 K
Assay metric: solubility (mole fraction)
Note: the reply should be a number with no unit written.

query: // fetch solubility (mole fraction) given entry CC1Cc2ccccc2N1NC(=O)c1ccc(Cl)c(S(N)(=O)=O)c1 (stereo unspecified)
result: 0.0198

* * *

Conditions: in acetonitrile, 313.15 K
Assay metric: solubility (mole fraction)
API doc: respond with a numeric literal and nothing else, no unit.

query: Give the reported value of solubility (mole fraction) for this record: CC1Cc2ccccc2N1NC(=O)c1ccc(Cl)c(S(N)(=O)=O)c1 (stereo unspecified)
result: 0.0158

* * *

Conditions: in ethanol, 283.15 K
Assay metric: solubility (mole fraction)
API note: the answer field is a bare number with no unit suffix.

query: Tell me its solubility (mole fraction) given CC1Cc2ccccc2N1NC(=O)c1ccc(Cl)c(S(N)(=O)=O)c1 (stereo unspecified) as the entry.
result: 0.00514

* * *

Conditions: in cyclohexane, 313.15 K
Assay metric: solubility (mole fraction)

query: Look up and state reported solubility (mole fraction) for CC1Cc2ccccc2N1NC(=O)c1ccc(Cl)c(S(N)(=O)=O)c1 (stereo unspecified)
result: 3.36e-05

* * *

Settings: in methanol, 308.15 K
Assay metric: solubility (mole fraction)
API note: the answer field is a bare number with no unit suffix.

query: Identify measured solubility (mole fraction) corresponding to CC1Cc2ccccc2N1NC(=O)c1ccc(Cl)c(S(N)(=O)=O)c1 (stereo unspecified)
result: 0.023

* * *

Settings: in acetone, 298.15 K
Assay metric: solubility (mole fraction)
The response must contain the number and no unit.

query: Give me measured solubility (mole fraction), please, for this compound: CC1Cc2ccccc2N1NC(=O)c1ccc(Cl)c(S(N)(=O)=O)c1 (stereo unspecified)
result: 0.0322

* * *

Conditions: in acetone, 293.15 K
Assay metric: solubility (mole fraction)

query: Name the recorded solubility (mole fraction) of the item CC1Cc2ccccc2N1NC(=O)c1ccc(Cl)c(S(N)(=O)=O)c1 (stereo unspecified) in your answer.
result: 0.0288

* * *

Conditions: in 2-butanone, 283.15 K
Assay metric: solubility (mole fraction)
API doc: respond with a numeric literal and nothing else, no unit.

query: # return recorded solubility (mole fraction) for input CC1Cc2ccccc2N1NC(=O)c1ccc(Cl)c(S(N)(=O)=O)c1 (stereo unspecified)
result: 0.0175

* * *

Details: in 2-butanone, 308.15 K
Assay metric: solubility (mole fraction)
Output spec: single numeric token, no unit.

query: Please list solubility (mole fraction) recorded for the compound CC1Cc2ccccc2N1NC(=O)c1ccc(Cl)c(S(N)(=O)=O)c1 (stereo unspecified)
result: 0.0329
